# Tested on: ACHN renal
# Test: NCI tumour cell line growth inhibition, 48 h
Assay endpoint: TGI

Observe how each entry below is paired with its result.
Compound | Assay endpoint | Result
O=C(CC(O)(C(F)(F)F)C(F)(F)F)C(CCCl)C(O)(C(F)(F)F)C(F)(F)F (stereo unspecified) | TGI | > 100 µM
OCC(O)C(O)c1nn(-c2ccccc2)c2nc3cc(Cl)c(Cl)cc3nc12 (stereo unspecified) | TGI | 75.6 µM
OCC1OC(n2cnc3cccnc32)CC1O (stereo unspecified) | TGI | > 100 µM
COc1ccc(OC)c(-c2nc3sccn3c2/C=C2/C(=O)Nc3ccc(Cl)cc32)c1 | TGI | > 100 µM
Cc1cc(Cc2c(F)c(F)c(Cc3cc(C)no3)c(F)c2F)on1 | TGI | > 100 µM
CN(C)CCOC(=O)COc1ccc(Cl)cc1 | TGI | > 100 µM

Look up TGI with ACHN renal for this compound: COC(=O)C(/C(=N/NC(=O)c1ccncc1)C(=O)Nc1ccccc1OC)c1nc2ccc(Cl)cc2[nH]c1=O (stereo unspecified) > 100 µM

Param item: COc1ccc(C2OC(=O)c3c2ccc2ccccc32)c(C)c1 (stereo unspecified) > 100 µM

Request: `Nc1[nH]c(=O)ncc1F` > 100 µM

Next compound up: `S=c1nc[nH]c2c1ncn2Cc1ccco1` > 100 µM

Further, for COc1ccc(SC2c3cc(OC)c(OC)cc3Oc3nc(N)c(C#N)c(N)c32)cc1 (stereo unspecified) ? 3.12 µM

* * *

Listed below: TGI values for each entry.
# Test system: HOP-62 NSCLC
# Test: NCI tumour cell line growth inhibition, 48 h

Solved entries:
Compound | TGI
COc1ccc(-c2nn(-c3cccc(Cl)c3)cc2C=C(C#N)C#N)cc1 | 6.04 µM
C/C(=C/CO[Si](C)(C)C(C)(C)C)C(=O)N(C)c1ccccc1I | 36.5 µM
O=C(c1ccc2ccccc2c1)C1S(=O)(=O)OCCOS1(=O)=O | > 100 µM
CS(=O)(=O)OCCN1CCC2(CC1)SSC1(CCN(CCOS(C)(=O)=O)CC1)S2 | > 100 µM

Okay, now this compound:
What does the data say about its TGI? Entry: `CCN(CC)CCO/N=C1\CC[C@H]2[C@@H]3CC=C4C[C@@H](O)CC[C@]4(C)[C@H]3CC[C@]12C` 35.2 µM

* * *

# System: CCRF-CEM leukemia
# Test: NCI tumour cell line growth inhibition, 48 h
Assay endpoint: TGI (µM)
Quick note: give the figure in µM, leave out the unit.

Smiles entry | TGI [µM]
O=P(Oc1ccc(Cl)cc1)(Oc1ccc(Cl)cc1)N1CC1 | 0.429

Proceed to the following item.
Could you tell me which TGI is on file for `CCOC(=O)c1sc(-c2ccc(OS(=O)(=O)c3cccs3)c(C=O)c2)nc1C` ? 5.38

* * *

Examples of compounds with documented TGI follow.
# System: OVCAR-8 ovarian
# Test: NCI tumour cell line growth inhibition, 48 h

Compound | Target or system | Assay endpoint | Result
C#CCN1C(=O)/C(=c2\sc3n(c2=O)C2C(NN=3)N(CC)C(=O)N2CC)c2ccccc21 (stereo not drawn) | OVCAR-8 ovarian | TGI | > 100 µM
Cc1ccc(C(=O)N(C(C)C)C(C)C)cc1N=NN(C)C | OVCAR-8 ovarian | TGI | > 100 µM
O=C1c2ccccc2C(=O)c2c1ccc(C(Br)Br)c2[N+](=O)[O-] | OVCAR-8 ovarian | TGI | 4.35 µM

Quick one: TGI for `COC(=O)c1ccc(-c2nc(C#N)c(N)o2)cc1` ? > 100 µM

Again, but for `CN(C(=O)C1(C(=O)C=[N+]=[N-])CC1)c1ccccc1` > 100 µM

Same question, CN1/C(=C\C(I)C(I)C2=[N+](C)c3ccccc3C2(C)C)C(C)(C)c2ccccc21 (stereo not drawn) this time 13.9 µM

Same thing, different compound: `O=C(c1ccc2ccccc2c1)C1S(=O)(=O)OCCOS1(=O)=O` > 100 µM

Then this compound: C/C(=N\NC(N)=O)C(CN1CCCCC1)C(c1ccccc1)c1c(O)c2ccccc2oc1=O (stereo not drawn) > 100 µM
